Each recorded value in this set is attributed to ChEMBL document CHEMBL1139110.

assay: Cytotoxicity againt human WI38 cells; type: cell-based; conditions: WI-38
Classify by IC50. Ranges: lo = under 20 µg/mL, med = from 20 µg/mL up to 60 µg/mL, hi = 60 µg/mL and over

Item smiles	Class name
CC(=O)O[C@@H]1[C@@H]2CC(=O)C(C)=C([C@@H](OC(C)=O)[C@H](OC(C)=O)[C@]3(C)CC[C@H]4OC[C@@]4(O)[C@@H]13)C2(C)C	hi
CC(=O)OC[C@]1(O)[C@@H](O)CC[C@@]2(C)[C@@H](OC(C)=O)[C@H](OC(C)=O)C3=C(C)C(=O)C[C@@H]([C@@H](OC(=O)/C=C/c4ccccc4)[C@@H]21)C3(C)C	hi
CC(=O)O[C@@H]1[C@@H]2CC(=O)C(C)=C([C@@H](OC(C)=O)[C@H](OC(C)=O)[C@]3(C)CC[C@H](O)[C@@](O)(CO)[C@@H]13)C2(C)C	hi
CC(=O)O[C@H]1C(=O)[C@]2(C)CC[C@H]3OC[C@@]3(O)[C@H]2[C@H](OC(=O)c2ccccc2)[C@@H]2C[C@H](O)C(C)=C1C2(C)C	med
CC(=O)O[C@@H]1C2=C(C)C(=O)C[C@@H]([C@@H](OC(=O)c3ccccc3)[C@H]3[C@@](C)(CC[C@H]4OC[C@]43O)[C@H]1OC(C)=O)C2(C)C	lo

Incoming: Exercise: read the entry CC(=O)OC[C@]1(O)[C@@H](O)CC[C@@]2(C)[C@@H](OC(C)=O)[C@H](OC(C)=O)C3=C(C)C(=O)C[C@@H]([C@@H](O)[C@@H]21)C3(C)C and state which class it falls under.
Outgoing: hi

Incoming: Exercise: read the entry CC(=O)O[C@H]1C(=O)[C@@]2(C)[C@H]([C@H](OC(=O)c3ccccc3)[C@]3(O)C[C@H](O)C(C)=C1C3(C)C)[C@]1(OC(C)=O)CO[C@@H]1C[C@@H]2O and state which class it falls under.
Outgoing: lo

Incoming: Exercise: read the entry CC(=O)O[C@H]1C(=O)[C@]2(C)CC[C@H](O)[C@@](O)(CO)[C@H]2[C@H](OC(=O)c2ccccc2)[C@@H]2CC(=O)C(C)=C1C2(C)C and state which class it falls under.
Outgoing: med

Incoming: Exercise: read the entry CC(=O)O[C@@H]1[C@@H]2C[C@H](O)C(C)=C([C@@H](OC(C)=O)[C@H](OC(C)=O)[C@]3(C)CC[C@H]4OC[C@@]4(O)[C@@H]13)C2(C)C and state which class it falls under.
Outgoing: lo

Incoming: Exercise: read the entry CC(=O)O[C@@H]1C2=C(C)C(=O)C[C@@H]([C@@H](OC(=O)c3ccccc3)[C@H]3[C@@](C)(CC[C@H]4OC[C@]43O)[C@H]1O)C2(C)C and state which class it falls under.
Outgoing: med

Incoming: Exercise: read the entry CC(=O)O[C@H]1[C@H](O)C2=C(C)C(=O)C[C@@H]([C@@H](OC(=O)c3ccccc3)[C@H]3[C@@]1(C)CC[C@H]1OC[C@]13O)C2(C)C and state which class it falls under.
Outgoing: lo

* * *

experiment: Effect on calcein accumulation in multidrug-resistant human 2780AD cells at 0.25 ug/ml relative to control; type: functional, A2780 ADR
Measured parameter: Activity (%)
Provide only the numeric value, understood in %.

Incoming: Any idea what its Activity is? The molecule is CC(=O)O[C@@H]1[C@@H]2CC(=O)C(C)=C([C@@H](OC(C)=O)[C@H](OC(C)=O)[C@]3(C)CC[C@H]4OC[C@@]4(O)[C@@H]13)C2(C)C
Outgoing: 115

Incoming: Any idea what its Activity is? The molecule is CC(=O)O[C@@H]1C2=C(C)C(=O)C[C@@H]([C@@H](OC(=O)c3ccccc3)[C@H]3[C@@](C)(CC[C@H]4OC[C@]43O)[C@H]1O)C2(C)C
Outgoing: 99

Incoming: Any idea what its Activity is? The molecule is COc1ccc(CCN(C)CCCC(C#N)(c2ccc(OC)c(OC)c2)C(C)C)cc1OC (stereo not drawn)
Outgoing: 99

Incoming: Any idea what its Activity is? The molecule is CC(=O)O[C@@H]1[C@@H]2C[C@@H](O)C(C)=C([C@@H](OC(C)=O)[C@H](OC(C)=O)[C@]3(C)CC[C@H]4OC[C@@]4(O)[C@@H]13)C2(C)C
Outgoing: 82

Incoming: Any idea what its Activity is? The molecule is CC(=O)O[C@H]1C(=O)[C@]2(C)CC[C@H]3OC[C@@]3(O)[C@H]2[C@H](OC(=O)c2ccccc2)[C@@H]2C[C@H](O)C(C)=C1C2(C)C
Outgoing: 96

Incoming: Any idea what its Activity is? The molecule is CC(=O)O[C@@]12CO[C@@H]1C[C@H](O)[C@@]1(C)C(=O)[C@H](O)C3=C(C)[C@@H](O)C[C@@](O)([C@@H](OC(=O)c4ccccc4)[C@H]21)C3(C)C
Outgoing: 95

Incoming: Any idea what its Activity is? The molecule is CC(=O)O[C@H]1C(=O)[C@@]2(C)[C@H]([C@H](OC(=O)c3ccccc3)[C@]3(O)C[C@H](O)C(C)=C1C3(C)C)[C@]1(OC(C)=O)CO[C@@H]1C[C@@H]2O
Outgoing: 93

Incoming: Any idea what its Activity is? The molecule is CC1=C2[C@@H](O)[C@H](O)[C@]3(C)CC[C@H]4OC[C@@]4(O)[C@H]3[C@H](OC(=O)c3ccccc3)[C@H](CC1=O)C2(C)C
Outgoing: 105

Incoming: Any idea what its Activity is? The molecule is CC(=O)OC[C@]1(O)[C@@H](O)CC[C@@]2(C)[C@@H](OC(C)=O)[C@H](OC(C)=O)C3=C(C)C(=O)C[C@@H]([C@@H](OC(=O)/C=C/c4ccccc4)[C@@H]21)C3(C)C
Outgoing: 88

Incoming: Any idea what its Activity is? The molecule is CC(=O)O[C@H]1C(=O)[C@]2(C)CC[C@H]3OC[C@@]3(O)[C@H]2[C@H](OC(=O)c2ccccc2)[C@@H]2CC(=O)C(C)=C1C2(C)C
Outgoing: 101
